The values you see were collected from the supplement of paper PMC6757056.

B1: library; a variant is named by its letters at N, in order (parent)
chain: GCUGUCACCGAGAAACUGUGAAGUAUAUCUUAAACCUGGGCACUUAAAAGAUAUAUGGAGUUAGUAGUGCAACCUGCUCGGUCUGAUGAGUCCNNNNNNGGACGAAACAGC

# Variants of: B1
# ASSAY NAME: FACS-Seq fitted mean relative fluorescence mCherry/BFP with ligand (log10 relative fluorescence); HEK293T; ligand: cyclic di-GMP (c-di-GMP-II aptamer); ligand concentration (+) FACS-Seq: 1 mM; higher = higher reporter protein expression
# APPLIED CONDITIONS: ligand present: yes
Assign YES whenever FACS-Seq fitted mean (log10) does not fall below 0.1; assign NO whenever it does.

{"MUTATION NOTATION": "GGUUCC", "DISCRETE LABEL": "YES"}
{"MUTATION NOTATION": "ACCCUG", "DISCRETE LABEL": "NO"}
{"MUTATION NOTATION": "GGACCC", "DISCRETE LABEL": "YES"}
{"MUTATION NOTATION": "CGGCCA", "DISCRETE LABEL": "NO"}
{"MUTATION NOTATION": "CCAUGC", "DISCRETE LABEL": "YES"}
{"MUTATION NOTATION": "AAACUA", "DISCRETE LABEL": "NO"}
{"MUTATION NOTATION": "AUAAAG", "DISCRETE LABEL": "NO"}
{"MUTATION NOTATION": "CGUUCA", "DISCRETE LABEL": "YES"}
{"MUTATION NOTATION": "ACAAUC", "DISCRETE LABEL": "NO"}
{"MUTATION NOTATION": "GAUUUA", "DISCRETE LABEL": "NO"}
